# System: 22RV1
# PROTOCOL: Cell proliferation assay (CellTiterGlo, 72 h), 22RV1
# Type: cell-based
# TEST_PARAMETERS: Homo sapiens, 22Rv1, 72 h; read-out: 22Rv1 ATP average IC50
Below: a set of entries, each annotated with reported IC50.

Reference set (2 entries):
compound="CCNC(=O)C[C@@H]1N=C(c2ccc(C#CCN)cc2)c2cc(OC)ccc2-n2c(C)nnc21 [Compound 9051]" value_measured="> 500 nM"
compound="CCOC(=O)C[C@@H]1N=C(c2ccc(C#CCN)cc2)c2cc(OC)ccc2-n2c(C)nnc21 [Compound 9069]" value_measured="< 50 nM"

Indicate the recorded IC50 value for this compound: Cc1sc2c(c1C)C(c1ccc(C#CCN)cc1)=N[C@@H](CC(=O)OCC1(C)COC1)c1nnc(C)n1-2 [Compound 9112] 50 to 200 nM

* * *

# System: 22RV1
# PROTOCOL: Cell proliferation assay (CellTiterGlo, 72 h), 22RV1
# Format: cell-based
# TEST_PARAMETERS: Homo sapiens, 22Rv1, 72 h; read-out: 22Rv1 ATP average IC50
MEASURED_QUANTITY: IC50

Give me measured IC50, please, for this molecule: Cc1sc2c(c1C)C(c1ccc(C#CCN)cc1)=N[C@@H](Cc1nnc(C(C)C)o1)c1nnc(C)n1-2 < 50 nM

Given the molecule C#CCNC(=O)C[C@@H]1N=C(c2ccc(C#CCN)cc2)c2c(sc(C)c2C)-n2c(C)nnc21 , write its reported IC50. 50 to 200 nM

Note IC50 for the molecule shown: Cc1sc2c(c1C)C(c1ccc(C#CCN)cc1)=N[C@@H](CC(=O)NN)c1nnc(C)n1-2 > 500 nM

Return IC50 (reported value) for this molecule: COc1ccc2c(c1)C(c1ccc(C#CCN)cc1)=N[C@@H](Cc1nccs1)c1nnc(C)n1-2 50 to 200 nM

Please give measured IC50 of the following entry: CONCC#Cc1ccc(C2=N[C@@H](CC(=O)OC(C)(C)C)c3nnc(C)n3-c3ccc(OC)cc32)cc1 < 50 nM

Consider the molecule COc1ccc2c(c1)C(c1ccc(C#CCNC(=N)N)cc1)=N[C@@H](CC(=O)OC(C)(C)C)c1nnc(C)n1-2 and give its recorded IC50. > 500 nM

Give IC50 for the following molecule: Cc1sc2c(c1C)C(c1ccc(C#CCN)cc1)=N[C@@H](CCOC(=O)C(C)(C)C)c1nnc(C)n1-2 50 to 200 nM

For the molecule Cc1sc2c(c1C)C(c1ccc(C#CCN)cc1)=N[C@@H](CC(=O)NCCO)c1nnc(C)n1-2 , report IC50. > 500 nM

Output IC50 of COc1ccc2c(c1)C(c1ccc(/C=C/C=N/O)cc1)=N[C@@H](CC(=O)OC(C)(C)C)c1nnc(C)n1-2 200 to 500 nM

Please report the measured IC50 for COc1ccc2c(c1)C(c1ccc(/C=C/CN)cc1)=N[C@@H](Cc1nccs1)c1nnc(C)n1-2 > 500 nM

* * *

# Tested on: 22RV1
# PROTOCOL: Cell proliferation assay (CellTiterGlo, 72 h), 22RV1
# Type: cell-based
# TEST_PARAMETERS: Homo sapiens, 22Rv1, 72 h; read-out: 22Rv1 ATP average IC50
pIC50: −log10 of the molar value.
Each item that follows carries a reported pIC50.

Below: 3 molecules and their reported pIC50.
molecule="COc1ccc2c(c1)C(c1ccc(C#CCN)cc1)=N[C@@H](CC(=O)O)c1nnc(C)n1-2 [Compound 9070]" tested_on=22RV1 value_measured="< 6.30"
molecule="COc1ccc2c(c1)C(c1ccc(C#CCN)cc1)=N[C@@H](CC(=O)N(C)CCO)c1nnc(C)n1-2 [Compound 9063]" tested_on=22RV1 value_measured="< 6.30"
molecule="Cc1sc2c(c1C)C(c1ccc(C#CCN)cc1)=N[C@@H](CC(=O)NO)c1nnc(C)n1-2 [Compound 9010]" tested_on=22RV1 value_measured="< 6.30"

State its pIC50: Cc1sc2c(c1C)C(c1ccc(C#CCN)cc1)=N[C@@H](CC(=O)O)c1nnc(C)n1-2 [Compound 9021] < 6.30

* * *

# TESTED_ON: BRD4 (Homo sapiens)
# PROTOCOL: BRD4 degradation assay (Western-blot / Simple Western) in 22RV1
# TEST_PARAMETERS: 22RV1 cells, target content as percentage of control (DMSO = 100%)
MEASURED_QUANTITY: BRD4 degradation of 22RV1 (200 nM 5 h)

compound=COc1ccc2c(c1)C(c1ccc(C#CCN)cc1)=N[C@@H](CC(=O)OC(C)(C)C)c1nnc(C)n1-2 value_measured="B (20%<B<50%)"
compound=Cc1sc2c(c1C)C(c1ccc(/C=C/C=N/O)cc1)=N[C@@H](CC(=O)OC(C)(C)C)c1nnc(C)n1-2 value_measured="D (80%<D<100%)"
compound=CONCC#Cc1ccc(C2=N[C@@H](CC(=O)OC(C)(C)C)c3nnc(C)n3-c3ccc(OC)cc32)cc1 value_measured="B (20%<B<50%)"
compound=CC(=O)N(O)C/C=C/c1ccc(C2=N[C@@H](CC(=O)OC(C)(C)C)c3nnc(C)n3-c3sc(C)c(C)c32)cc1 value_measured="C (50%<C<80)"
compound=Cc1sc2c(c1C)C(c1ccc(/C=C/CNO)cc1)=N[C@@H](Cc1nccs1)c1nnc(C)n1-2 value_measured="A (A<20%)"
compound=Cc1sc2c(c1C)C(c1ccc(/C=C/CN)cc1)=N[C@@H](Cc1nccs1)c1nnc(C)n1-2 value_measured="C (50%<C<80)"
compound=Cc1sc2c(c1C)C(c1ccc(C#CCN)cc1)=N[C@@H](CC(=O)OC1(C)CC1)c1nnc(C)n1-2 value_measured="B (20%<B<50%)"
compound=COc1ccc2c(c1)C(c1ccc(/C=C/CNOC(C)=O)cc1)=N[C@@H](CC(=O)OC(C)(C)C)c1nnc(C)n1-2 value_measured="A (A<20%)"
compound=COc1ccc2c(c1)C(c1ccc(/C=C/CNO)cc1)=N[C@@H](CC(=O)OC1(C)CC1)c1nnc(C)n1-2 value_measured="B (20%<B<50%)"
compound=Cc1sc2c(c1C)C(c1ccc(-c3ccc(CN)o3)cc1)=N[C@@H](CC(=O)OC(C)(C)C)c1nnc(C)n1-2 value_measured="C (50%<C<80)"

System BRD4 (Homo sapiens). Read-out BRD4 degradation of 22RV1 (200 nM 5 h). Item CONC/C=C/c1ccc(C2=N[C@@H](CC(=O)OC(C)(C)C)c3nnc(C)n3-c3ccc(OC)cc32)cc1 . Report value. A (A<20%)

Report value: BRD4 degradation of 22RV1 (200 nM 5 h), system: BRD4 (Homo sapiens), compound: Cc1sc2c(c1C)C(c1ccc(/C=C/CNC(=N)NO)cc1)=N[C@@H](CC(=O)OC(C)(C)C)c1nnc(C)n1-2 C (50%<C<80)

// output BRD4 degradation of 22RV1 (200 nM 5 h); input COc1ccc2c(c1)C(c1ccc(/C=C/CN)cc1)=N[C@@H](Cc1nccs1)c1nnc(C)n1-2 ; system BRD4 (Homo sapiens) B (20%<B<50%)

Find BRD4 degradation of 22RV1 (200 nM 5 h) for Cc1sc2c(c1C)C(c1ccc(C#CCN)cc1)=N[C@@H](CC(=O)OCC1(C)COC1)c1nnc(C)n1-2 on BRD4 (Homo sapiens) and write it down. D (80%<D<100%)

Given COc1ccc2c(c1)C(c1ccc(C#CCN)cc1)=N[C@@H](Cc1nccs1)c1nnc(C)n1-2 , report its BRD4 degradation of 22RV1 (200 nM 5 h) on BRD4 (Homo sapiens). B (20%<B<50%)

* * *

# System: 22RV1
# PROTOCOL: Cell proliferation assay (CellTiterGlo, 72 h), 22RV1
# Type: cell-based
# TEST_PARAMETERS: Homo sapiens, 22Rv1, 72 h; read-out: 22Rv1 ATP average IC50
MEASURED_QUANTITY: IC50

# count of solved cases: 4
compound="Cc1sc2c(c1C)C(c1ccc(/C=C/CN)cc1)=N[C@@H](Cc1nccs1)c1nnc(C)n1-2 [Compound 9136]" measured_quantity=IC50 value_measured="< 50 nM"
compound="CCNC(=O)C[C@@H]1N=C(c2ccc(C#CCN)cc2)c2c(sc(C)c2C)-n2c(C)nnc21 [Compound 9013]" measured_quantity=IC50 value_measured="200 to 500 nM"
compound="COC(=O)C[C@@H]1N=C(c2ccc(/C=C/CNO)c(F)c2)c2cc(OC)ccc2-n2c(C)nnc21 [Compound 9213]" measured_quantity=IC50 value_measured="< 50 nM"
compound="Cc1sc2c(c1C)C(c1ccc(C#CCN)cc1)=N[C@@H](CC(=O)N(C)CCO)c1nnc(C)n1-2 [Compound 9075]" measured_quantity=IC50 value_measured="200 to 500 nM"

State its IC50 for this compound: Cc1sc2c(c1C)C(c1ccc(C#CCN)cc1)=N[C@@H](CC(N)=O)c1nnc(C)n1-2 [Compound 9001] > 500 nM
